Item-by-item account of IC50
Target: catalytic domain of human Bub1 (amino acids 704-1085) (Homo sapiens, UniProt O43683)
Sequence (O43683 704-1085): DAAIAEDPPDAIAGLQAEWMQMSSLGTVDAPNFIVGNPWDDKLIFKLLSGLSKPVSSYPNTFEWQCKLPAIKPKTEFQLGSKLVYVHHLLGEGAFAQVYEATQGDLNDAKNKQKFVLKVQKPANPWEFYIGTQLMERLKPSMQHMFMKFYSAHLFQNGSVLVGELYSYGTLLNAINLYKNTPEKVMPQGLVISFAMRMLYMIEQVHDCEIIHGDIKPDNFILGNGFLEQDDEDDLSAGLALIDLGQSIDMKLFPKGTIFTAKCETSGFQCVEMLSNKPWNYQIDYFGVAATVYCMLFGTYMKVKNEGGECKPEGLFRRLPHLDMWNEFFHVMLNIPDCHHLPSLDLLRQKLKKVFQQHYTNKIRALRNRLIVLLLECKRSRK

In the examples that follow, each entry is paired with its recorded IC50.
{"Mol Smiles": "CCOc1cc(F)c(Cn2cc(Cl)c(-c3ncc(OC)c(Nc4ccncn4)n3)n2)c(F)c1", "Tested On": "catalytic domain of human Bub1 (amino acids 704-1085) (Homo sapiens, UniProt O43683)", "IC50": "0.1 µM"}
{"Mol Smiles": "CCOc1cc(F)c(Cn2nc(-c3ncc(OC)c(Nc4ccnnc4)n3)c(C)c2C2CC2)c(F)c1", "Tested On": "catalytic domain of human Bub1 (amino acids 704-1085) (Homo sapiens, UniProt O43683)", "IC50": "0.052 µM"}

Now consider the entry below.
### Prompt Supply measured IC50 of "CCOc1cc(F)c(Cn2nc(-c3ncc(OC)c(Nc4ccncn4)n3)c(C)c2C2CC2)c(F)c1" in your reply.
### Response 0.016 µM

----------
Tested on: HeLa human cervical cancer cell line
Experiment: Proliferation assay (crystal violet staining)
Format: cell-based
Conditions: 96 h, HeLa cells, 4 days incubation, median, read-out: Biological Assay 2: Proliferation assay (HeLa cell line) median IC50
pIC50: −log10 of the molar value.
The following compounds are shown together with reported pIC50 values.

Below, 4 compounds whose answers are already recorded.
{"Compound": "COc1cnc(-c2cc(OC)n(Cc3ccccc3F)n2)nc1Nc1ccncn1 [Example 2-1-7]", "pIC50": "< 5.00"}
{"Compound": "CCOc1cc(F)c(Cn2cc(C)c(-c3ncc(OC)c(Nc4ccncn4)n3)n2)c(F)c1 [Example 2-1-5]", "pIC50": "< 5.00"}
{"Compound": "CCOc1cc(F)c(Cn2cc(Cl)c(-c3ncc(OC)c(Nc4ccncn4)n3)n2)c(F)c1 [Example 2-1-6]", "pIC50": "< 5.00"}
{"Compound": "CCOc1cc(F)c(Cn2nc(-c3nccc(Nc4ccncn4)n3)c(C)c2C2CC2)c(F)c1 [Example 2-1-3]", "pIC50": "< 5.00"}

### Prompt Using known records, supply pIC50 for CCOc1cc(F)c(Cn2nc(-c3nccc(Nc4ccncn4)n3)c(Cl)c2C2CC2)c(F)c1 [Example 2-1-1]
### Response < 5.00

### Prompt Input CCOc1cc(F)c(Cn2nc(-c3ncc(OC)c(Nc4ccncn4)n3)c(C)c2C2CC2)c(F)c1 [Example 2-1-2] , output reported pIC50.
### Response 5.46

### Prompt Kindly indicate its recorded pIC50. Item: CCOc1cc(F)c(Cn2nc(-c3ncc(OC)c(Nc4ccnnc4)n3)c(C)c2C2CC2)c(F)c1 [Example 2-1-4]
### Response < 5.00
